molecular target: LNX1_1, Q8TBB1; assay: holdup assay; design: key: below the threshold = too weak to quantify, mostly under pKd 3.1 to 4; conditions: plain residues with an end cap or a label only (N-terminal biotin on a linker: ado-ado)
Sequence (Q8TBB1 261-371): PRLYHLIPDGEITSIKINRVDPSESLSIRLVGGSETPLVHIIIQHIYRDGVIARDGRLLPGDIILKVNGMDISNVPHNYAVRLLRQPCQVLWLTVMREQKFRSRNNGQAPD
Where pKd equals or exceeds 4, the correct label is YES; where it does not, the label is NO.

See these solved cases before continuing.
• RDPPAEWTRV [PTPN18, Q99952] = NO
• NTLNRKTTPV [CACNG8, Q8WXS5] = NO
• DGVNEKVSCV [HTR2A, P28223] = YES
• APIAGFSSFV [SDK2, Q58EX2] = YES
• SPDRDRESIV [SCN5A, Q14524] = NO
• VLYPREGTEV [FOXI1, Q12951] = YES

Decide: pKd of MQHQRTHTRV [ZSCAN30, Q86W11] >= 4?
NO

Given KRPEMTSSSV [MUC3A, MUC3B, Q02505;Q9H195] , state whether its pKd is at least 4.
NO

State whether the measured pKd reaches 4, counting equality as reaching it, for ARSAAASNYV [CLDN4, O14493]
NO

Check if pKd >= 4 (inclusive). Item: PPGKHLVTEV [KCNA7, Q96RP8]
YES
